- target_system: lanosterol demethylase (Candida albicans, UniProt P10613)
- Construct: endogenous in cells
- Sequence (P10613 whole entry): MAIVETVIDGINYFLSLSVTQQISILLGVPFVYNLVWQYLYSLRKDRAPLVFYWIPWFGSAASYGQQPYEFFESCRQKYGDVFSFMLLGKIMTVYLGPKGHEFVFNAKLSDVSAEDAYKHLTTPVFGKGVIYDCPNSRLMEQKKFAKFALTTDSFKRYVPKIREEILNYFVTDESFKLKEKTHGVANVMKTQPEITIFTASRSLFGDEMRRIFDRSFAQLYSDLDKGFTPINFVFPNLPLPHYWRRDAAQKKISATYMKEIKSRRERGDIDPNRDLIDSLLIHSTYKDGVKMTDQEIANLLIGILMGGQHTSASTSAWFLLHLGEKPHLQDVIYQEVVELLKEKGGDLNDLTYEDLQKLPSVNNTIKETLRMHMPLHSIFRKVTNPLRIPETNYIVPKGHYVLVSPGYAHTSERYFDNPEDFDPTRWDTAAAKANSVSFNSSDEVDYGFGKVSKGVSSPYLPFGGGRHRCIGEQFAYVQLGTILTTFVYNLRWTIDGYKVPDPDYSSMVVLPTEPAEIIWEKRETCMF
- assay_name: Spectrophotometric carbon monoxide binding assay (Omura and Sato)
- condition_description: Candida albicans SGY677, read-out: 50% inhibition of carbon monoxide binding
- Description: The inhibition of lanosterol demethylase was determined by two methods: the spectrophotometric carbon monoxide binding assay of Omura and Sato (J. Biol. Chem. 239:2370-2378, 1964) and by a radiolabeled metabolic assay. Cells of Candida albicans, SGY677, were grown overnight without shaking at 30° C. in a medium consisting of yeast extract 1% , peptone 2%, glucose 2% and distilled water. Cells were harvested by centrifugation and resuspended in 0.65M mannitol to an optical density at 600 nm of 2.5. […]
readout_name: IC50 (µM)
Please give a number only; it is taken to be in µM.

Challenge: Could you share which IC50 value was measured for CCCC=CC=CC=C(C)[C@H]1OC[C@@H](C)[C@@H](OC)[C@@H]1O (relative stereo) [alcohol] ?
Response given: 14
